Attribution: patent US20230348578A1

molecular target: P-tau peptide (wild-type P-tau peptide and its pure cis or cis-locked, and pure trans counterparts); experiment: Biacore (SPR) with P-tau peptide
Measured Relative KD values are reported for all entries that follow.

Cis-mAb HT8 (humanized) (antibody, V domains shown) VH: QVQLVQSGAEVKKPGASVKVSCKASGYTFTSYWIHWVRQRPGQGLEWIGVIDPSDSYTRYNQKFKGRVTITRDTSASTAYMELSSLRSEDTAVYYCTTWEVDYWGQGTLVTVSS VL: DVVMTQSPLSLPVTLGQPASISCRSSQSLVHSDGNTYLHWYLQKPGQSPQLLIYKVSNRDSGVPDRFSGSGSGTDFTLKISRVEAEDVGVYFCSQSTHVPWTFGGGTKVEIK; 6.11 fold of HT13
Cis-mAb HT13 (mouse-human chimera, control) (antibody, V domains shown) VH: QVQLQQPGAELVKPGASVKMSCKASGYTFTSYWIHWVKQRPGQGLEWIGVIDPSDSYTRYNQKFKGKATLTVDTSSSTAYMQLSSLTSEDSAVYYCTTWEVDYWGQGTTLTVSS VL: DVVMTQTPLSLPVSLGDQASISCRSSQSLVHSDGNTYLHWYLQKPGQSPKLLIYKVSNRFSGVPDRFSGSGSGTDFTLKISRLEAEDLGVYFCSQSTHVPWTFGGGTKLEIK; 1 fold of HT13

Q. Quick check: Relative KD of Cis-mAb HT1 (humanized) (antibody, V domains shown) VH: QVQLVQSGAELKKPGASVKMSCKASGYTFTSYWIHWVKQRPGQGLEWIGVIDPSDSYTRYNQKFKGRATLTVDTSASTAYMQLSSLTSEDSAVYYCTTWEVDYWGQGTTVTVSS VL: DVVMTQSPLSLPVTLGQPASISCRSSQSLVHSDGNTYLHWYLQKPGQSPQLLIYKVSNRFSGVPDRFSGSGSGTDFTLKISRVEAEDVGVYFCSQSTHVPWTFGGGTKVEIK ?
A. 1.45 fold of HT13

Q. Reported Relative KD for Cis-mAb HT16 (humanized) (antibody, V domains shown) VH: QVQLVQSGAEVKKPGASVKVSCKASGYTFTSYWIHWVRQRPGQGLEWIGVIDPSDSYTRYNQKFKGRVTLTVDTSASTAYMELSSLRSEDTAVYYCTTWEVDYWGQGTLVTVSS VL: DVVMTQSPLSLPVTLGQPASISCRSSQSLVHSDGNTYLNWYLQKPGQSPQLLIYKVSNRFSGVPDRFSGSGSGTDFTLKISRVEAEDVGVYFCSQSTHVPWTFGGGTKVEIK : what is it?
A. 2.59 fold of HT13

Q. Value lookup for Relative KD; key = Cis-mAb HT5 (humanized) (antibody, V domains shown) VH: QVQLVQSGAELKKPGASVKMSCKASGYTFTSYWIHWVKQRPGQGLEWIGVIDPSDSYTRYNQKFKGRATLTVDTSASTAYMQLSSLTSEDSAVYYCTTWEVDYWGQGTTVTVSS VL: DVVMTQSPLSLPVTLGQPASISCRSSQSLVHSDGNTYLHWYLQKPGQSPQLLIYKVSNRDSGVPDRFSGSGSGTDFTLKISRVEAEDVGVYFCSQSTHVPWTFGGGTKVEIK
A. 5.48 fold of HT13

Q. What value of Relative KD has been reported for the following binder? Cis-mAb HT12 (humanized) (antibody, V domains shown) VH: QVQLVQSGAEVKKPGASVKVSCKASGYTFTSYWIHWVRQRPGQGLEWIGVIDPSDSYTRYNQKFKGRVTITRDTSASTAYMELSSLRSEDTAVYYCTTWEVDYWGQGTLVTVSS VL: DVVMTQSPLSLPVTLGQPASISCRSSQSLVHSDGNTYLHWYLQKPGQSPQLLIYKVSNRFSGVPDRFSGSGSGTDFTLKISRVEAEDVGVYYCSQSTHVPWTFGGGTKVEIK
A. 2.82 fold of HT13

Q. Consider the binder Cis-mAb HT14 (humanized) (antibody, V domains shown) VH: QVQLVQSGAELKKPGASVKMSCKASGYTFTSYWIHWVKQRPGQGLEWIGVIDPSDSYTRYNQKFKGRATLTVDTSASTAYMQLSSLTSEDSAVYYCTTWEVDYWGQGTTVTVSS VL: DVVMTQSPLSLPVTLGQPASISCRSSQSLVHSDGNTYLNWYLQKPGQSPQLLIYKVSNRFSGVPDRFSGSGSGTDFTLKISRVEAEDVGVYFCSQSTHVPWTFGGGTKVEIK and give its measured Relative KD.
A. 24 fold of HT13

Q. Would you kindly share the measured Relative KD for Cis-mAb HT4 (humanized) (antibody, V domains shown) VH: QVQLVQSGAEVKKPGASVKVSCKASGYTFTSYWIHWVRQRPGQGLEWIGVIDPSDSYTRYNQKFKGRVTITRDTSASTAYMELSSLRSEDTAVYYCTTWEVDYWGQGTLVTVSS VL: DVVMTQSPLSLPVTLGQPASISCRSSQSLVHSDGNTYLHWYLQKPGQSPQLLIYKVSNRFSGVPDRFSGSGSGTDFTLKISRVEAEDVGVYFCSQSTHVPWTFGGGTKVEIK ?
A. 1.92 fold of HT13
